Target: Human PKMYT1 (Homo sapiens)
Construct: Human PKMYT1 75-362 was cloned as a TEV cleavable 6xHis fusion; 6xHis (TEV cleavable) (cleaved yes); made in house; host or cells: bacterial cells
Sequence (Q99640 75-362): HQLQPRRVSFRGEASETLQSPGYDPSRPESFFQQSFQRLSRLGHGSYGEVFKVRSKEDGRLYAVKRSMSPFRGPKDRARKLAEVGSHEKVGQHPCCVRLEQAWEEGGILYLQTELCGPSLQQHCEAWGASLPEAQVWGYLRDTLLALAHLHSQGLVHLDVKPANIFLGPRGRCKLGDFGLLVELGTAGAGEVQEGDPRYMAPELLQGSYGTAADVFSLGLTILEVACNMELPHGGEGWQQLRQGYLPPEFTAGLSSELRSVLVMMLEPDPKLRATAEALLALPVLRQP
Assay: PKMYT1 biochemical ADP-Glo enzymatic assay
Settings: ADP-Glo; 15 nM PKMYT1 kinase domain, 500 µM ATP, 60 minutes at 26° C.; banded
Procedure: Human PKMYT1 75-362 was cloned as a TEV cleavable 6xHis fusion in bacterial cells. After purification on a Ni++HiTrap Chelating HP column, the His-tag was cleaved using TEV protease. […] PKMYT1 biochemical assay: Inhibition of PKMYT1 was assessed using the ADP-Glo™ Max Detection System from Promega. […] Inhibition of PKMYT1 by small molecule inhibitors results in a retardation of luminescence above background. The intrinsic ATPase activity of PKMYT1 was assessed according to the following protocol. […]
PARAMETER: IC50

Record excerpt, results attached:
COMPOUND STRUCTURE STRING | IC50
Cc1ccc(O)c(C)c1NC(=O)c1cnc(Nc2ccn([C@@H]3CCN(C(=O)CC4CCOCC4)C3)n2)s1 | 0.05 to 1 µM
CCOC(=O)c1cc(Nc2ncc(C(=O)Nc3c(C)ccc(O)c3C)s2)nn1C | < 0.05 µM
Cc1ccc(O)c(C)c1NC(=O)c1cnc(Nc2ccc(C(F)(F)F)cn2)s1 | 0.05 to 1 µM

Report IC50 for `Cc1ccc(O)c(C)c1NC(=O)c1cnc(Nc2ccn([C@@H]3CCN(CCc4ccccc4)C3)n2)s1`
0.05 to 1 µM

Taken from patent US20260297042A1.
